target: mGlu7/Elfn1 (Rattus norvegicus, UniProt P35400); construct: expressed in transfected cells; host or cells: HEK293A mGlu7/GIRK cells cocultured with HEK293A polyclonal cells stably expressing Elfn1-Myc (pcDNA3); experiment: Thallium flux assay, mGlu7/GIRK HEK293 cells cocultured with Elfn1-expressing cells; format: cell-based, mouse Elfn1; settings: PAM pEC50, Elfn1, PAM concentration-response at an EC20 concentration of L-AP4
Sequence (P35400 35-915): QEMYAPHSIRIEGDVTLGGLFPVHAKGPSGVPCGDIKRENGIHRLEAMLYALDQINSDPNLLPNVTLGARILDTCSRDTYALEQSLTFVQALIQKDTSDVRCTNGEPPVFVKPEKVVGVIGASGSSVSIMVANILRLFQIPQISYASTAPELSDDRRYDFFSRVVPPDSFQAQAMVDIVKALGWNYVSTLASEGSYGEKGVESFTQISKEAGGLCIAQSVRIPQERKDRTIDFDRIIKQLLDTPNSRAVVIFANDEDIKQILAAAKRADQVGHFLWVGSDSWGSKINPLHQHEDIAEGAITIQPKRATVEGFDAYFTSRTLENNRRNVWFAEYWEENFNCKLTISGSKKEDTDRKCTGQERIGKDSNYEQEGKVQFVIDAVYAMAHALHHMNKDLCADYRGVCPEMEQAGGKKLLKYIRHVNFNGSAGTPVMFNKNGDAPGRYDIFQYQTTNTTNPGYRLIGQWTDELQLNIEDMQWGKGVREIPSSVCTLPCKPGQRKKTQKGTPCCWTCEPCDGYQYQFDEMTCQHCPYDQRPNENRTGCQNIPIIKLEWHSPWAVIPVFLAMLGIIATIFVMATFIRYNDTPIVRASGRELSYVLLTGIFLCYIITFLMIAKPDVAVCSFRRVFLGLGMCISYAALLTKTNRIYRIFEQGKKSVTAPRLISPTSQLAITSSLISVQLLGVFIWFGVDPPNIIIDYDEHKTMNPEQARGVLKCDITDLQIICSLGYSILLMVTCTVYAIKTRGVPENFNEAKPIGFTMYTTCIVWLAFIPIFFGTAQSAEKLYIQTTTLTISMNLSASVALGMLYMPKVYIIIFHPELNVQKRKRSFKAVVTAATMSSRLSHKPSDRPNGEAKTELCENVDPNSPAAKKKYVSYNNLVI
Sequence (Q8C8T7 26-828 partner): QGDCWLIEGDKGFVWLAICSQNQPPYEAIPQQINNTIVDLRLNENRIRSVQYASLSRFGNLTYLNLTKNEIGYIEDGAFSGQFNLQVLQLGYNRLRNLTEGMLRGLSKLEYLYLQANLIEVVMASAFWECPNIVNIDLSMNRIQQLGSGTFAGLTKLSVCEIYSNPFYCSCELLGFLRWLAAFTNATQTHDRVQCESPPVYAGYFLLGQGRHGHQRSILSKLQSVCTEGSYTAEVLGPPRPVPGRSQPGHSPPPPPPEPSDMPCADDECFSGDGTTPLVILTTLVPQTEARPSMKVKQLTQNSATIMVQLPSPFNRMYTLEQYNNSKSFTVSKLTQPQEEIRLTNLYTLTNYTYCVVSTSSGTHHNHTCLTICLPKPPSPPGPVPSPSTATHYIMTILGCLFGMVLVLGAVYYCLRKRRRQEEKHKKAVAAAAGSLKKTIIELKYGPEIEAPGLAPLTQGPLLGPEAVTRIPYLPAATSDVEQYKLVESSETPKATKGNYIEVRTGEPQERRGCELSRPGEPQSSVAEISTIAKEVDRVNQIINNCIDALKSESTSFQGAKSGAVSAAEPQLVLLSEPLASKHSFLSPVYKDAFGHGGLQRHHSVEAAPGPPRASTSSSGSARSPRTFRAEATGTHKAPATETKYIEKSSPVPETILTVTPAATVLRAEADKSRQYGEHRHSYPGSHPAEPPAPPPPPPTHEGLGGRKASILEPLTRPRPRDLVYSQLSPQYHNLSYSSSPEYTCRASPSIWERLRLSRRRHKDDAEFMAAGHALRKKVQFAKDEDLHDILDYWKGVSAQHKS
Observation type: pEC50
Hey, just a heads up that pEC50 is the negative log base 10 of the concentration in molar.

Exercise: For `COc1cc(F)cc2c(N3CCN(c4ccccc4F)CC3)c(C#N)cnc12` , what is its reported pEC50?
Key: 5.79
